- Test system: HEK-293T
- methodSummary: Multiplex assay against HEK293T
- Type: toxicity, cell-based
- settings: human, 12 h, 10 µM, compound concentration 10 uM, replicate 2
Threshold check on Population Apoptotic (%): strictly below 60% is Criterion met; on or above 60% is Criterion not met.

Recorded results for 5 compounds are shown here.
Please indicate whether the reported Population Apoptotic (%) of CC(C)(C)c1cc(NC(=O)Nc2ccc(-c3cn4c(n3)sc3cc(OCCN5CCOCC5)ccc34)cc2)no1 is strictly below 60%.
Criterion not met

Please indicate whether the reported Population Apoptotic (%) of CN(C)C(=O)Cn1cc(-c2ccc(-c3cncc4ccccc34)cc2)cn1 is strictly below 60%.
Criterion not met

Please indicate whether the reported Population Apoptotic (%) of CC(/C=C1\SC(=S)N(CCCC(=O)Nc2ccc(C(=O)O)c(O)c2)C1=O)=C\c1ccccc1 is strictly below 60%.
Criterion met

Please indicate whether the reported Population Apoptotic (%) of NCCc1cn(S(=O)(=O)c2c(Cl)nc3sccn23)c2ccccc12.O=C(O)C(=O)O is strictly below 60%.
Criterion not met

Please indicate whether the reported Population Apoptotic (%) of CC[C@@H](C)Nc1nc(C)nc2c(-c3ccc(OC)nc3C)c(C)nn12 is strictly below 60%.
Criterion met

Others:
Please indicate whether the reported Population Apoptotic (%) of Cc1noc(-c2ccc(-c3ccc(CC(=O)O)cc3)cc2)c1NC(=O)O[C@H](C)c1ccccc1Cl is strictly below 60%.
Criterion met

Please indicate whether the reported Population Apoptotic (%) of COC[C@@H](c1ccc(C(F)(F)F)cc1)N1CCN(C2(C)CCN(C(=O)c3c(C)ncnc3C)CC2)C[C@@H]1C.O=C(O)/C=C\C(=O)O [VICRIVIROC MALEATE] is strictly below 60%.
Criterion not met

Please indicate whether the reported Population Apoptotic (%) of COc1ccccc1N1CCN(C[C@@H](C(=O)NC(C)(C)C)c2ccccc2)CC1.Cl.Cl is strictly below 60%.
Criterion met

Please indicate whether the reported Population Apoptotic (%) of CC(C)COc1ccc(CNC(=O)N(Cc2ccc(F)cc2)C2CCN(C)CC2)cc1 is strictly below 60%.
Criterion not met

Please indicate whether the reported Population Apoptotic (%) of CN1CCN(c2cc(-c3ccccc3)nc(N)n2)CC1 is strictly below 60%.
Criterion met

* * *

- Test system: Fibroblast
- methodSummary: Multiplex assay against human fibroblast
- Format: toxicity, cell-based
- settings: 48 h, 1 µM, compound concentration 1 uM, replicate 2
// values below are reported Population Pyknosed Nuclei (%)
Provide the reading as a plain figure in %.

Recorded Population Pyknosed Nuclei (%), per entry:
Provide measured Population Pyknosed Nuclei (%) value, entry: COC[C@@H](c1ccc(C(F)(F)F)cc1)N1CCN(C2(C)CCN(C(=O)c3c(C)ncnc3C)CC2)C[C@@H]1C.O=C(O)/C=C\C(=O)O [VICRIVIROC MALEATE]
15

Provide measured Population Pyknosed Nuclei (%) value, entry: C[C@H](N)COC(=O)[C@@H](CCCCN)NC(=O)Cc1c(-c2ccc3ccccc3c2)[nH]c2c1ccc1ccccc12
18

Others:
Provide measured Population Pyknosed Nuclei (%) value, entry: Br.CS(=O)(=O)Nc1c(O)ccc2c1CCCC2C1=NCCN1 (centres undefined)
12

Provide measured Population Pyknosed Nuclei (%) value, entry: CCc1cc2cc(NS(=O)(=O)c3ccc(C#N)cc3)ccc2n(CC)c1=O
16

Provide measured Population Pyknosed Nuclei (%) value, entry: Cc1cnc(-c2cc(N3CCN(C(=O)CCS(C)(=O)=O)CC3)ncc2Cl)c(C)c1
12

Provide measured Population Pyknosed Nuclei (%) value, entry: NCCc1cn(S(=O)(=O)c2c(Cl)nc3sccn23)c2ccccc12.O=C(O)C(=O)O
14

Provide measured Population Pyknosed Nuclei (%) value, entry: N#Cc1cc(F)cc(-c2nc(-c3ccc(F)cn3)no2)c1
22
